B1: EHMT1 (parent)
chain: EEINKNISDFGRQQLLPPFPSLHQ

Variants of: B1
Assay: protein stability index of a GFP-peptide fusion (GPS, HEK-293T) (PSI 1-6); higher = more stable;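 further: lentivirally expressed fusions sorted by FACS into six bins by GFP to DsRed ratio, PSI derived from sequencing read proportions per bin multiplied by bin number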
Details: c terminus: a fixed tail appended
For each record, write down the corresponding protein stability index.
Answer as a number with no unit attached.

QUERY: Look at this variant and give its reported protein stability index. Q24R
RESULT: 2.96

QUERY: What does the data say about its protein stability index? Entry: P18L
RESULT: 3.07

QUERY: Query (variant): P18F ; field requested: protein stability index
RESULT: 2.91

QUERY: Need protein stability index of S8D , thanks.
RESULT: 3.07
